target: UniProtKB P25099; test: Antagonist activity against adenosine A1 receptor in rat adipocytes
measured_endpoint: Ki (nM)
The reply should be a number in nM, with the unit left off.

Answered cases to consult:
{"molecule": "CCCn1c(=O)c2nc(C3CC3C)[nH]c2n(CCC)c1=O (centres undefined)", "Ki (nM)": 11}
{"molecule": "CCCn1c(=O)c2nc(C3CCC(C(=O)N(C)CCN(C)C)CC3)[nH]c2n(CCC)c1=O (stereo in doubt; 14)", "Ki (nM)": 17}
{"molecule": "CCCn1c(=O)c2nc(C3CCCC3C(=O)O)[nH]c2n(CCC)c1=O (trans isomer)", "Ki (nM)": 100}
{"molecule": "CCCn1c(=O)c2nc(C3CCC(C(=O)OC)CC3)[nH]c2n(CCC)c1=O (centres undefined)", "Ki (nM)": 130}
{"molecule": "CCCNC(=O)C1CCC(c2nc3c([nH]2)c(=O)n(CCC)c(=O)n3CCC)CC1 (centres undefined)", "Ki (nM)": 85}
{"molecule": "CCCn1c(=O)c2nc(NC3CCC3)[nH]c2n(CCC)c1=O", "Ki (nM)": 2.6}

Requested read-out: Ki. Entry: CCCn1c(=O)c2nc(C3CCC(NC(C)=O)CC3)[nH]c2n(CCC)c1=O (stereo in doubt; 9)
12

Given the entry CCCn1c(=O)c2nc(C3CCC(C(=O)O)CC3)[nH]c2n(CCC)c1=O (stereo in doubt; 2) , report its measured Ki.
59

----------
molecular target: Adenosine receptor A1 (Rattus norvegicus); assay: Antagonist activity against adenosine A1 receptor in rat adipocytes
measured_endpoint: pKi
A value of pKi is the negative decimal logarithm of a concentration given in moles per litre.

Before answering, review these 7 worked examples.
{"compound": "CCCn1c(=O)c2nc(C3CCC(CN)CC3)[nH]c2n(CCC)c1=O (centres undefined)", "pKi": 7.70}
{"compound": "CCCn1c(=O)c2nc(C3CCC(C(=O)O)CC3)[nH]c2n(CCC)c1=O (stereo in doubt; 1)", "pKi": 6.37}
{"compound": "CCCn1c(=O)c2nc(N3CCCCC3)[nH]c2n(CCC)c1=O", "pKi": 7.66}
{"compound": "CCCn1c(=O)c2nc(NC3CCCC3)[nH]c2n(CCC)c1=O", "pKi": 8.10}
{"compound": "CCCn1c(=O)c2nc(C3CCC3C(=O)O)[nH]c2n(CCC)c1=O (centres undefined)", "pKi": 6.18}
{"compound": "CCCn1c(=O)c2nc(C3CCCC3C(=O)O)[nH]c2n(CCC)c1=O (stereo in doubt; 17)", "pKi": 6.85}
{"compound": "CCCn1c(=O)c2nc([C@H]3CC[C@H](CNC(C)=O)CC3)[nH]c2n(CCC)c1=O", "pKi": 8.10}

Then there is this compound:
Record request: pKi value, item CCCn1c(=O)c2[nH]c(C34CC5CC(CC(C5)C3)C4)nc2n(CCC)c1=O
7.09

----------
target: UniProt:P25099; assay: Antagonist activity against adenosine A1 receptor in rat adipocytes
measured_endpoint: pKi
Hey, just a heads up that pKi is the negative log base 10 of the concentration in molar.

{"compound": "CCCn1c(=O)c2nc(C3CCCC(N)C3)[nH]c2n(CCC)c1=O (configuration not stated)", "pKi": 7.30}
{"compound": "CCCn1c(=O)c2nc(NC3CCCCC3)[nH]c2n(CCC)c1=O", "pKi": 7.85}
{"compound": "CCCn1c(=O)c2nc(CC3CCCC3)[nH]c2n(CCC)c1=O", "pKi": 7.16}
{"compound": "CCCn1c(=O)c2nc(C3CCCC(NC(C)=O)C3)[nH]c2n(CCC)c1=O (configuration not stated)", "pKi": 7.39}
{"compound": "CCCn1c(=O)c2nc(C3CCC(C(=O)N(C)CCN(C)C)CC3)[nH]c2n(CCC)c1=O (stereo in doubt; 15)", "pKi": 7.07}

Given the compound CCCn1c(=O)c2[nH]c(C3CCC(N)CC3)nc2n(CCC)c1=O (stereo in doubt; 6) , what is its reported pKi?
7.05

# get_value(readout='pKi', item= CCCn1c(=O)c2nc(N3CCCC3)[nH]c2n(CCC)c1=O )
7.12

Bench note: what pKi did CCCn1c(=O)c2[nH]c(C3CCC(N)CC3)nc2n(CCC)c1=O (stereo in doubt; 7) show?
6.80

Would you mind telling me what pKi value was observed for CCCn1c(=O)c2nc(C3CCCC3C(=O)N(C)CCN(C)C)[nH]c2n(CCC)c1=O (stereo in doubt; 20) ?
7.28

Item CCCn1c(=O)c2nc(C3CCC(NC(C)=O)CC3)[nH]c2n(CCC)c1=O (stereo in doubt; 10) has what recorded pKi?
7.15

----------
Some compounds, each annotated with its measured log10 Ki.
biological target: Adenosine receptor A2 (Homo sapiens); assay: Antagonistic activity against adenosine A2 receptor in human platelets
Please be aware that the numbers have been log10-transformed from Ki in µM.

// known answers, use as guide
{"compound": "CCCn1c(=O)c2nc(C3CCC(NC(C)=O)CC3)[nH]c2n(CCC)c1=O (stereo in doubt; 10)", "system_under_test": "Adenosine receptor A2 (Homo sapiens)", "measured_endpoint": "log10 Ki", "recorded_number": 0.00}
{"compound": "CCCn1c(=O)c2nc(C3CCCC(NC(C)=O)C3)[nH]c2n(CCC)c1=O (centres undefined)", "system_under_test": "Adenosine receptor A2 (Homo sapiens)", "measured_endpoint": "log10 Ki", "recorded_number": 0.00}
{"compound": "CCCn1c(=O)c2nc(C3CCC(C(=O)OC)CC3)[nH]c2n(CCC)c1=O (centres undefined)", "system_under_test": "Adenosine receptor A2 (Homo sapiens)", "measured_endpoint": "log10 Ki", "recorded_number": -0.25}

# log10 Ki lookup, item CCCn1c(=O)c2nc(C3CCC(C(=O)N(C)CCN(C)C)CC3)[nH]c2n(CCC)c1=O (stereo in doubt; 14)
-0.59

Suppose we examine the compound CCCn1c(=O)c2nc(C3CCC(C(=O)O)CC3)[nH]c2n(CCC)c1=O (stereo in doubt; 2) ; what log10 Ki value has been reported?
0.18

----------
The entries below come with measured Ki values attached.
molecular target: Adenosine receptor A2 (Homo sapiens); test: Antagonistic activity against adenosine A2 receptor in human platelets

Reference set (10 entries):
{"compound": "CCCn1c(=O)c2nc(C3CCCCC3C(=O)O)[nH]c2n(CCC)c1=O (stereo in doubt; 3)", "measured_endpoint": "Ki", "result": "> 10 µM"}
{"compound": "CCCn1c(=O)c2nc(C3CCCC(N)C3)[nH]c2n(CCC)c1=O (centres undefined)", "measured_endpoint": "Ki", "result": "> 10 µM"}
{"compound": "CCCn1c(=O)c2nc(C3CCCCC3C(=O)O)[nH]c2n(CCC)c1=O (stereo in doubt; 4)", "measured_endpoint": "Ki", "result": "> 3 µM"}
{"compound": "CCCn1c(=O)c2nc(CC3CCCC3)[nH]c2n(CCC)c1=O", "measured_endpoint": "Ki", "result": "> 10 µM"}
{"compound": "CCCn1c(=O)c2nc(C3CCCC3C(=O)N(C)CCN(C)C)[nH]c2n(CCC)c1=O (stereo in doubt; 19)", "measured_endpoint": "Ki", "result": "> 3 µM"}
{"compound": "CCCn1c(=O)c2nc(C3CCCC3C(=O)N(C)CCN(C)C)[nH]c2n(CCC)c1=O (stereo in doubt; 20)", "measured_endpoint": "Ki", "result": "> 10 µM"}
{"compound": "CCCn1c(=O)c2nc(C3CCC(C(=O)O)CC3)[nH]c2n(CCC)c1=O (stereo in doubt; 1)", "measured_endpoint": "Ki", "result": "> 10 µM"}
{"compound": "CCCn1c(=O)c2nc(C3CCC(C(=O)N(C)CCN(C)C)CC3)[nH]c2n(CCC)c1=O (stereo in doubt; 15)", "measured_endpoint": "Ki", "result": "0.45 µM"}
{"compound": "CCCn1c(=O)c2nc(C3=C(C(=O)O)CCC3)[nH]c2n(CCC)c1=O", "measured_endpoint": "Ki", "result": "> 10 µM"}
{"compound": "CCCn1c(=O)c2nc(C3CCCC3C(=O)O)[nH]c2n(CCC)c1=O (trans isomer)", "measured_endpoint": "Ki", "result": "> 10 µM"}

Can you share its Ki? I mean this compound: CCCn1c(=O)c2nc(NC3CCCCC3)[nH]c2n(CCC)c1=O
0.68 µM

State the recorded Ki for this entry: CCCn1c(=O)c2nc(N3CCCCC3)[nH]c2n(CCC)c1=O
0.49 µM

Ki for CCCn1c(=O)c2nc(C3CC3C)[nH]c2n(CCC)c1=O (centres undefined) ?
> 10 µM

Given the compound CCCn1c(=O)c2nc(C3CCC3C(=O)O)[nH]c2n(CCC)c1=O (centres undefined) , what is its reported Ki?
> 10 µM

Tell me the measured Ki of CCCn1c(=O)c2nc(C3CCC(NC(C)=O)CC3)[nH]c2n(CCC)c1=O (stereo in doubt; 9) , please.
> 10 µM
